Overview of reported binding signal across a group of sequences:
Biological target: OsWOX13 (Oryza sativa, UniProt Q5QMM3 1-267)
Sequence: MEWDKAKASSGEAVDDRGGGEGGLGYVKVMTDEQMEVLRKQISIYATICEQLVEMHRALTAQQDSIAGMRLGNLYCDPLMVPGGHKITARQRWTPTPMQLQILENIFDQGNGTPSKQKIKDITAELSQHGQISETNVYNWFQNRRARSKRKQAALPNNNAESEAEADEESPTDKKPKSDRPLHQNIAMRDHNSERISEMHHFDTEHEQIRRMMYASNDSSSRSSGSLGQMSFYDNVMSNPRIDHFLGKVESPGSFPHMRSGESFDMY
Assay: protein-binding microarray (RPBM); PBS, 2% BSA, 51.3 ng/ul salmon testes DNA, 50 uM zinc acetate, 200 nM TF, 25 C, 1 h; high values mean tight binding
Conditions: protein: recombinant; tags: N-terminal polyhistidine and DsRed monomer fusion (pET32a); label: CyDye5-dUTP incorporated in the synthesized complementary strand; 3' TTTTT single-stranded linker to array surface; dsDNA, one strand shown
Over roughly 35,000 sequences, “fluorescence intensity (a.u.)” has its median near 10,000; the highest 2% begin near 52,000. The entries come from a sample that favours the highest values as a whole.
REPORTED_PROPERTY: binding signal

[[record]]
seq_text = "AAACCATTGCAAATTAACTCTCCAAATGGTTTCAGAGACGCGGAGTCACCTAGTGCAG"
reported_property = "binding signal"
observed = "4040 fluorescence intensity (a.u.)"

[[record]]
seq_text = "GAATACTGACAGTAAAGATGATTGCAGAATTAGCTCATAGCGGAGTCACCTAGTGCAG"
reported_property = "binding signal"
observed = "19400 fluorescence intensity (a.u.)"

[[record]]
seq_text = "ATGTGAAATTGAATGCAGTAGTATGCACATGAAACTTGGGCGGAGTCACCTAGTGCAG"
reported_property = "binding signal"
observed = "11300 fluorescence intensity (a.u.)"

[[record]]
seq_text = "TTATTTATCAGTCTGATTTTATATAATGTAATATTATGCACGGAGTCACCTAGTGCAG"
reported_property = "binding signal"
observed = "3150 fluorescence intensity (a.u.)"

[[record]]
seq_text = "TGAGGAGCAATTAATGAGTTTGATGGACAGAGATAATAGCCGGAGTCACCTAGTGCAG"
reported_property = "binding signal"
observed = "9490 fluorescence intensity (a.u.)"

[[record]]
seq_text = "ATGTGTCAATTAATTATTTGCCACTCGCTGTCTATGACATCGGAGTCACCTAGTGCAG"
reported_property = "binding signal"
observed = "28300 fluorescence intensity (a.u.)"

[[record]]
seq_text = "GATAACGTGGCCAAATTATATCAGACGTTCATGTTTAGATCGGAGTCACCTAGTGCAG"
reported_property = "binding signal"
observed = "5800 fluorescence intensity (a.u.)"

[[record]]
seq_text = "CAGCCGGATTGATTGCGTAGCTGTGTGCAAGGCTGGGCGACGGAGTCACCTAGTGCAG"
reported_property = "binding signal"
observed = "35900 fluorescence intensity (a.u.)"

[[record]]
seq_text = "CTTAATAACTTTCTCGGATTTAATGTGTGACTCACCATTCCGGAGTCACCTAGTGCAG"
reported_property = "binding signal"
observed = "3340 fluorescence intensity (a.u.)"

[[record]]
seq_text = "AATTGTTTGATTGAAATTAATGTACTCTTGAATGGATAAACGGAGTCACCTAGTGCAG"
reported_property = "binding signal"
observed = "32600 fluorescence intensity (a.u.)"

[[record]]
seq_text = "ACTGAACAAATTGAGCATGGTGTATATGTCACATTTTCTACGGAGTCACCTAGTGCAG"
reported_property = "binding signal"
observed = "6220 fluorescence intensity (a.u.)"

[[record]]
seq_text = "TTCTGATTAGTTACAACTTGAGTTCACTATTGTCATGATACGGAGTCACCTAGTGCAG"
reported_property = "binding signal"
observed = "37200 fluorescence intensity (a.u.)"

[[record]]
seq_text = "ATACTTGATTTAAAATGAAAACATAGACAAATGTATGGTACGGAGTCACCTAGTGCAG"
reported_property = "binding signal"
observed = "23800 fluorescence intensity (a.u.)"

[[record]]
seq_text = "TTAAAATTATGTTTGAAAATTTAAATTTTAGACGCGGCTTCGGAGTCACCTAGTGCAG"
reported_property = "binding signal"
observed = "14900 fluorescence intensity (a.u.)"

[[record]]
seq_text = "AGAGTTGTAATTAACCTTTTCAGGTTGTATTGACTGCAAGCGGAGTCACCTAGTGCAG"
reported_property = "binding signal"
observed = "3760 fluorescence intensity (a.u.)"

[[record]]
seq_text = "ATTTGATTTAAAACCTCAGTTTTCGATTGAGAGAAAATATCGGAGTCACCTAGTGCAG"
reported_property = "binding signal"
observed = "4350 fluorescence intensity (a.u.)"

[[record]]
seq_text = "CTCTCTAGTAATTATCCATGTGCTCGTCTGGTTGGATTGGCGGAGTCACCTAGTGCAG"
reported_property = "binding signal"
observed = "5240 fluorescence intensity (a.u.)"

[[record]]
seq_text = "TCAGTATGTGATTGATTGAAAACTGAAATGGTAGACATACCGGAGTCACCTAGTGCAG"
reported_property = "binding signal"
observed = "53400 fluorescence intensity (a.u.)"

[[record]]
seq_text = "ATCATAATTAAATATATTTTCATAATAAATTTGTCTTTAGCGGAGTCACCTAGTGCAG"
reported_property = "binding signal"
observed = "31000 fluorescence intensity (a.u.)"

